Test system: HDQ-P1
Measurement Context: 72 h
The threshold is 10 nM. Values of EC50, CellTiter-Glo beneath it are tagged fulfilled; values meeting or exceeding it are tagged not fulfilled.

Before answering, review these 5 worked examples.
FC(F)c1nc2ccccc2n1-c1nc(N2CCOCC2)nc(N2CCOCC2)n1 [ZSTK474] :: not fulfilled
CN(c1ccccc1CNc1nc(Nc2ccc3c(c2)CC(=O)N3)ncc1C(F)(F)F)S(C)(=O)=O :: not fulfilled
CC(C)C[C@H](NC(=O)[C@H](Cc1ccccc1)NC(=O)c1cnccn1)B(O)O [Bortezomib] :: not fulfilled
CCS(=O)(=O)c1cccc(-c2cc(C(=O)NC3CCN(C)CC3)c(C)c3[nH]c4ncc(C)cc4c23)c1 [TAK-901] :: not fulfilled
Cn1cnc2c(F)c(Nc3ccc(Br)cc3F)c(C(=O)NOCCO)cc21 [MEK-162] :: not fulfilled

Moving on to the next compound.
# TODO verify EC50, CellTiter-Glo < 10 nM strictly for this compound: Cn1c(=O)c(F)c(Nc2ccc(I)cc2F)c2c(=O)n(C[C@@H](O)CO)cnc21 [TAK-733] fulfilled
